tested on: SNB-75 CNS; assay: NCI tumour cell line growth inhibition, 48 h; in the data active = GI50 below about 0.43 µM; inactive = the rest
Permitted responses: active, inactive

Challenge: So what was the verdict on CN(C)CCCn1c2c(c3cnccc3c1=O)C(=O)c1ccccc1-2 in this test?
Response given: inactive

Challenge: So what was the verdict on CCN(CC)c1ccc(/C=C\c2cc(C)c3cc(C)ccc3n2)cc1 in this test?
Response given: inactive

Challenge: So what was the verdict on c1ccc(Cc2nc3ccc(Nc4ncnc5ccccc45)cc3[nH]2)cc1 in this test?
Response given: inactive

Challenge: So what was the verdict on COc1cc(Nc2nc3cc(N)cc(N)c3nc2-c2ccccc2)cc(OC)c1 in this test?
Response given: inactive

Challenge: So what was the verdict on COc1ccc(-n2c(SCc3cc(OC)c(OC)c(OC)c3)nc3ccc(C)cc3c2=O)c(OC)c1 in this test?
Response given: inactive

Challenge: So what was the verdict on COc1ccc(-c2cc(-c3ccc(OC)c(OC)c3)nc(SCCCC(=O)NO)n2)cc1 in this test?
Response given: inactive

Challenge: So what was the verdict on CCOP(=O)(OCC)C(NC(c1ccccc1)c1ccccc1)c1ccccc1 (centres undefined) in this test?
Response given: inactive

Challenge: So what was the verdict on Cc1ccc(C(=O)Nc2ccc(CN3CCN(C)CC3)c(C(F)(F)F)c2)cc1C#Cc1cnc(N)cc1C#N in this test?
Response given: active

Challenge: So what was the verdict on C=C1C(=O)O[C@H]2[C@H]1CC/C(COC(=O)/C=C/C(=O)OC/C1=C/CC[C@@]3(C)O[C@H]3[C@H]3OC(=O)C(=C)[C@@H]3CC1)=C\CC[C@@]1(C)O[C@@H]21 in this test?
Response given: inactive

The measured values listed here are drawn from PubChem BioAssay (NCI).
